- studySystem: T1, FV-810^R1545Q (human, UniProt P12259 29-838; P12259 1520-2224)
- T1 construct: range 1-810;range 1492-2196; mature numbering
- T1 sequence (P12259 other isoform, or with tags, fused parts or gaps R1545Q R1545Q): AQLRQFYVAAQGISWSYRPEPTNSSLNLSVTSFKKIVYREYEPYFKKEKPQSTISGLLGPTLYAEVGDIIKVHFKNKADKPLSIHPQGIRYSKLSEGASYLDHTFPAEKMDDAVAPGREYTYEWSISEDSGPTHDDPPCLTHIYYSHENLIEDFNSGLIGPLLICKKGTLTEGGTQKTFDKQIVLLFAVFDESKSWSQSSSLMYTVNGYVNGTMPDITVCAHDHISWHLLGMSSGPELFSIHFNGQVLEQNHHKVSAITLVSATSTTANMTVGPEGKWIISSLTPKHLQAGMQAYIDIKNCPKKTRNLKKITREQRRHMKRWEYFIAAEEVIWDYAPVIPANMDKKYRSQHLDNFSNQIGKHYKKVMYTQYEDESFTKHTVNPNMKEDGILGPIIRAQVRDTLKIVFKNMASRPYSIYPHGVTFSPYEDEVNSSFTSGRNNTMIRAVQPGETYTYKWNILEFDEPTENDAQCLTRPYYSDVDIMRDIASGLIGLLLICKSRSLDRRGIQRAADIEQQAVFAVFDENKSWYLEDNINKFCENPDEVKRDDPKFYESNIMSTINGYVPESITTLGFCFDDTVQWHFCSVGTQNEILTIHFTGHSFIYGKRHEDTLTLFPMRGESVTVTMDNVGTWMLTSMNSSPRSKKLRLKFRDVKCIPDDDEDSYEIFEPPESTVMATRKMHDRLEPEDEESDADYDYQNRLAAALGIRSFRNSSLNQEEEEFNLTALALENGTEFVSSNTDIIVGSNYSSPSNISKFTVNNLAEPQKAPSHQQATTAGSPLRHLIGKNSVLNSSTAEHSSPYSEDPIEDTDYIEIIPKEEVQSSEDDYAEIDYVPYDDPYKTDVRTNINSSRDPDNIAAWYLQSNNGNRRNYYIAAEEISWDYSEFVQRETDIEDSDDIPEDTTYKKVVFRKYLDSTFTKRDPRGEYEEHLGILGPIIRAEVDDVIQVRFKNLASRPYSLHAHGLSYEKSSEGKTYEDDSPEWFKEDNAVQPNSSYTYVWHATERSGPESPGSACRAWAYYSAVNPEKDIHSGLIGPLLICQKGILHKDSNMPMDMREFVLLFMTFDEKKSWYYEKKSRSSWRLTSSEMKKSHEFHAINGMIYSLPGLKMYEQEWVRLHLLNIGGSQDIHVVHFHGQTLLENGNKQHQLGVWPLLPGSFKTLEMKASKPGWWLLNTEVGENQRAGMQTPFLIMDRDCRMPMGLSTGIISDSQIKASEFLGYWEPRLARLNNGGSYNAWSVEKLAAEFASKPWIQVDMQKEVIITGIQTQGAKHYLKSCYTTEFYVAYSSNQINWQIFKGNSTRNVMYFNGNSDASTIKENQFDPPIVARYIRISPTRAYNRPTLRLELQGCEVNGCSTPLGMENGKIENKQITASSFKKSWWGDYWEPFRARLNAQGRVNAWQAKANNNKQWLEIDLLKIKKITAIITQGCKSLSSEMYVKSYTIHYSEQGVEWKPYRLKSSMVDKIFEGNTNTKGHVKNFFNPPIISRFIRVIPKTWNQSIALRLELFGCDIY
- runDescription: fluorescence anisotropy; buffer-pretreated protein titrated into 30 nM OG488-BR, 50 uM PCPS; n=1 assumed
Ends that are not written are not given here.
measuredAttribute: pKd
One number for each entry, as −log10 of the molar value.

Please look up its pKd: Oregon Green 488 maleimide-modified BR (OG488-BR) (also called fluorescently labeled FVBR) peptide: C(Oregon Green 488 maleimide)SRAWGESTPLANKPGKQSGHPKFPRVRHKSLQVRQDGGKSRLKKSQFLIKTRKKKKEK
8.70
